# System: M14 melanoma
# Test summary: NCI-60 one-dose screen, 48 h
# Assay conditions: 10 µM
Compounds without any hit were thinned out: in the full panel of roughly 83,000, 20% have a hit. Active and inactive are the calls of the source. The calls were made as follows: active = growth percent below 10; inactive = the rest.
Possible outcomes: active, inactive

{"columns": ["Compound", "Group"],
 "data": [
  ["CCCCCCCCCCN=C(c1ccc(N(C)C)cc1)c1ccc(N(C)C)cc1", "active"],
  ["COc1ccc(C2C=C(c3ccc(Cl)cc3)N=C3SC=CN32)c(Br)c1 (stereo unspecified)", "inactive"],
  ["CC(C)c1[nH]nc2c(NCc3ccc(-c4ccccn4)cc3)nc(SCCN)nc12", "active"],
  ["COc1cc(C(=O)n2nc(N)c3c(C)cc(C)nc32)cc(OC)c1OC", "inactive"],
  ["COc1cc(C2C=C(c3ccc(Cl)cc3)N=C3SC(C)=CN32)cc(OC)c1OC (stereo unspecified)", "inactive"],
  ["CCCCCCCCCCCCCC[n+]1ccccc1", "active"],
  ["Oc1ccc(Cn2cc3c(c2-c2ccccc2)CCc2cnoc2-3)cc1", "inactive"],
  ["C/C(=N\\NC(N)=S)C(C)(C)O", "inactive"],
  ["COc1ccc(C(=O)/C=C/c2cc(-c3ccc4c(c3)OCO4)n[nH]2)cc1OC", "inactive"],
  ["O=C1c2cc(Cl)ccc2-c2c(O)cc(Cl)cc21", "inactive"],
  ["COc1cc(-c2nc3ccccc3[nH]2)ccc1OCC(=O)N=Nc1c(O)[nH]c2ccccc12", "inactive"]
]}
